Data origin: paper PMC7655571

- TARGET: human blood AChE (Homo sapiens)
- Construct: 90 µL undiluted blood in a 48-wells plate; from tissue; host or cells: venous EDTA whole blood from healthy human donors, lysed and diluted in Triton X-100 buffer
- PROTOCOL TEXT: AChE inhibition in human donor whole blood (Ellman method)
- Format: biochemical
- CONDITION NOTES: donor 18; read-out: IC50 Value
pIC50: −log10 of the molar value.
ATTRIBUTE MEASURED: pIC50

SMILES NOTATION: CCOP(=O)(OCC)Oc1cc(C)nc(C(C)C)n1
TARGET: human blood AChE (Homo sapiens)
MEASURED VALUE: 5.54

###

- TARGET: human blood AChE (Homo sapiens, UniProt P22303)
- Construct: 90 µL undiluted blood in a 48-wells plate; from tissue; host or cells: venous EDTA whole blood from healthy human donors, lysed and diluted in Triton X-100 buffer
- Sequence (P22303 32-617 isoform P22303-2 limits assumed): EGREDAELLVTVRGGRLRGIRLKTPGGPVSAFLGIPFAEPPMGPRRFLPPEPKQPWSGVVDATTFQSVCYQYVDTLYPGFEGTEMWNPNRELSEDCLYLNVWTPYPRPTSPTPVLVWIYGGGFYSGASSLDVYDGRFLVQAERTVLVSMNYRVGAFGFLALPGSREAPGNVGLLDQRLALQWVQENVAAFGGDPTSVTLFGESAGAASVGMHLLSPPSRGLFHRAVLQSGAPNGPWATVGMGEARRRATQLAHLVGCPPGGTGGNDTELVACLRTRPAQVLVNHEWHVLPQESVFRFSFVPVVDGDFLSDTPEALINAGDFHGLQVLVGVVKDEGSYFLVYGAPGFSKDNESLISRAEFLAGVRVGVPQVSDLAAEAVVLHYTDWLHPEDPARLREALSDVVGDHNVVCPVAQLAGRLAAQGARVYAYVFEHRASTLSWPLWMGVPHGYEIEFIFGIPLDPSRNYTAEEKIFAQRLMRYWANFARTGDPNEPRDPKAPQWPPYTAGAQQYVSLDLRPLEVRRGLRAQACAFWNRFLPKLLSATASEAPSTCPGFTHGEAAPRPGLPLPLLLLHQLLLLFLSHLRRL
- PROTOCOL TEXT: AChE inhibition in human donor whole blood (Ellman method)
- Type: biochemical
- CONDITION NOTES: IC50 Value, donor 1
ATTRIBUTE MEASURED: IC50 (µM)

SMILES NOTATION: Cc1nc(N(C)C)nc(OC(=O)N(C)C)c1C
MEASURED VALUE: 19

###

- TARGET: human blood AChE (Homo sapiens, UniProt P22303)
- Construct: 90 µL undiluted blood in a 48-wells plate; from tissue; host or cells: venous EDTA whole blood from healthy human donors, lysed and diluted in Triton X-100 buffer
- PROTOCOL TEXT: AChE inhibition in human donor whole blood (Ellman method)
- Format: biochemical
- CONDITION NOTES: donor 1; read-out: IC50 Value
pIC50: −log10 of the molar value.
ATTRIBUTE MEASURED: pIC50

COMPOUND: CCOP(=O)(OCC)Oc1cc(C)nc(C(C)C)n1 [DZO, diazinon-oxon]
TARGET: human blood AChE (Homo sapiens, UniProt P22303)
MEASURED VALUE: 5.82

###

- TARGET: human blood AChE (Homo sapiens, UniProt P22303)
- Construct: 90 µL undiluted blood in a 48-wells plate; from tissue; host or cells: venous EDTA whole blood from healthy human donors, lysed and diluted in Triton X-100 buffer
- PROTOCOL TEXT: AChE inhibition in human donor whole blood (Ellman method)
- Format: biochemical
- CONDITION NOTES: IC50 Value, donor 15
ATTRIBUTE MEASURED: IC50 (µM)

SMILES NOTATION: Cc1nc(N(C)C)nc(OC(=O)N(C)C)c1C
MEASURED VALUE: 16

###

- TARGET: human blood AChE (Homo sapiens, UniProt P22303)
- Construct: 90 µL undiluted blood in a 48-wells plate; from tissue; host or cells: venous EDTA whole blood from healthy human donors, lysed and diluted in Triton X-100 buffer
- PROTOCOL TEXT: AChE inhibition in human donor whole blood (Ellman method)
- Type: biochemical
- CONDITION NOTES: donor 8; read-out: IC50 Value
ATTRIBUTE MEASURED: IC50 (µM)

SMILES NOTATION: CCOP(=O)(OCC)Oc1cc(C)nc(C(C)C)n1
TARGET: human blood AChE (Homo sapiens, UniProt P22303)
ATTRIBUTE MEASURED: IC50
MEASURED VALUE: 2.2

###

- TARGET: human blood AChE (Homo sapiens, UniProt P22303)
- Construct: 90 µL undiluted blood in a 48-wells plate; from tissue; host or cells: venous EDTA whole blood from healthy human donors, lysed and diluted in Triton X-100 buffer
- PROTOCOL TEXT: AChE inhibition in human donor whole blood (Ellman method)
- Assay type: biochemical
- CONDITION NOTES: donor 5; read-out: IC50 Value
pIC50: −log10 of the molar value.

SMILES NOTATION: CCOP(=O)(OCC)Oc1cc(C)nc(C(C)C)n1
pIC50: 5.80

###

- TARGET: human blood AChE (Homo sapiens)
- Construct: 90 µL undiluted blood in a 48-wells plate; from tissue; host or cells: venous EDTA whole blood from healthy human donors, lysed and diluted in Triton X-100 buffer
- PROTOCOL TEXT: AChE inhibition in human donor whole blood (Ellman method)
- Type: biochemical
- CONDITION NOTES: donor 10; read-out: IC50 Value
pIC50: −log10 of the molar value.

SMILES NOTATION: CCOP(=O)(OCC)Oc1cc(C)nc(C(C)C)n1
TARGET: human blood AChE (Homo sapiens)
pIC50: 5.35

###

- TARGET: human blood AChE (Homo sapiens)
- Construct: 90 µL undiluted blood in a 48-wells plate; from tissue; host or cells: venous EDTA whole blood from healthy human donors, lysed and diluted in Triton X-100 buffer
- PROTOCOL TEXT: AChE inhibition in human donor whole blood (Ellman method)
- Assay type: biochemical
- CONDITION NOTES: donor 4; read-out: IC50 Value
pIC50: −log10 of the molar value.
ATTRIBUTE MEASURED: pIC50

SMILES NOTATION: CCOP(=O)(OCC)Oc1cc(C)nc(C(C)C)n1
MEASURED VALUE: 5.82

###

- TARGET: Electrophorus electricus AChE (Electrophorus electricus)
- Construct: purchased Sigma-Aldrich C2888
- Sequence (O42275 24-633): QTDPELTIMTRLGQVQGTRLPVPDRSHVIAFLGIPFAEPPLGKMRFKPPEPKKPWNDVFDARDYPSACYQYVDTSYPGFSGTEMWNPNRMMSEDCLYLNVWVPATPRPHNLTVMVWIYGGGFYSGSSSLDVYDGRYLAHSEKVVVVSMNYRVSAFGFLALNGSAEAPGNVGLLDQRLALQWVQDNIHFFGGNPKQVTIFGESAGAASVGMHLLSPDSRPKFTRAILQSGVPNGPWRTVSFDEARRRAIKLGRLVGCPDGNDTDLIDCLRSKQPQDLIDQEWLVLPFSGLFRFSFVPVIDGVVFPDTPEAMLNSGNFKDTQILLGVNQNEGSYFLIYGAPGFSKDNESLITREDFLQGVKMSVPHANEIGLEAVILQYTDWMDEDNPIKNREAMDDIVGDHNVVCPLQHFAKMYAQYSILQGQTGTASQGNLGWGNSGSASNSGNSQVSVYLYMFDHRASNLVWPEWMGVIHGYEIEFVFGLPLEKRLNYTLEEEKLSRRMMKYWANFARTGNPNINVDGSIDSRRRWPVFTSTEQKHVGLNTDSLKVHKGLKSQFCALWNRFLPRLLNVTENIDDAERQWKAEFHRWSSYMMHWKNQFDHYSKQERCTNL
- PROTOCOL TEXT: AChE inhibition, electric eel enzyme (Ellman method)
- Type: biochemical
- CONDITION NOTES: 30 min exposure, room temperature

MOLECULE: CCOP(=O)(OCC)Oc1nc(Cl)c(Cl)cc1Cl [CPO, Chlorpyrifos-oxon]
UNIT DESCRIPTOR: µM
IC20: 0.01
--
MOLECULE: CCOP(=O)(OCC)Oc1cc(C)nc(C(C)C)n1 [DZO, diazinon-oxon]
UNIT DESCRIPTOR: µM
IC20: 0.41
--
MOLECULE: Cc1nc(N(C)C)nc(OC(=O)N(C)C)c1C [PI, pirimicarb]
UNIT DESCRIPTOR: µM
IC20: 9.9
--
MOLECULE: CCN(C)C(=O)Oc1cccc([C@H](C)N(C)C)c1 [RI, rivastigmine]
UNIT DESCRIPTOR: µM
IC20: 16

###

- TARGET: human blood AChE (Homo sapiens, UniProt P22303)
- Construct: 90 µL undiluted blood in a 48-wells plate; from tissue; host or cells: venous EDTA whole blood from healthy human donors, lysed and diluted in Triton X-100 buffer
- PROTOCOL TEXT: AChE inhibition in human donor whole blood (Ellman method)
- Assay type: biochemical
- CONDITION NOTES: donor 9; read-out: IC50 Value
ATTRIBUTE MEASURED: IC50 (µM)

SMILES NOTATION: CCOP(=O)(OCC)Oc1cc(C)nc(C(C)C)n1
UNIT DESCRIPTOR: µM
MEASURED VALUE: 2.1
